System: M. Bovis BCG Wild-type
ASSAY INFO: microbe, parasite or virus in culture
Type: cell-based
ASSAY SETUP: Mycobacterium tuberculosis variant bovis BCG
QUANTITY MEASURED: MIC (µg/mL)
Reply numerically in µg/mL, unit not repeated.

Here are 3 compounds together with their reported answers.
Quick one: MIC of CN[C@H](CC(C)C)C(=O)N[C@H]1C(=O)N[C@@H](CC(N)=O)C(=O)N[C@H]2C(=O)N[C@H]3C(=O)N[C@H](C(=O)N[C@H](C(=O)O)c4cc(O)cc(O)c4-c4cc3ccc4O)[C@H](O)c3ccc(c(Cl)c3)Oc3cc2cc(c3O[C@@H]2O[C@H](CO)[C@@H](O)[C@H](O)[C@H]2O[C@H]2C[C@](C)(N)[C@H](O)[C@H](C)O2)Oc2ccc(cc2Cl)[C@H]1O ?
5

Item CN(C)[C@@H]1C(O)=C(C(N)=O)C(=O)[C@@]2(O)C(O)=C3C(=O)c4c(O)cccc4[C@@](C)(O)[C@H]3C[C@@H]12 has what recorded MIC?
31.2

Name the reported MIC value associated with the compound O=C(O)c1cn(C2CC2)c2cc(N3CCNCC3)c(F)cc2c1=O
1

Consider the record given below.
# input compound: CO[C@H]1/C=C/O[C@@]2(C)Oc3c(C)c(O)c4c(O)c(c(/C=N/N5CCN(C)CC5)c(O)c4c3C2=O)NC(=O)/C(C)=C\C=C\[C@H](C)[C@H](O)[C@@H](C)[C@@H](O)[C@@H](C)[C@H](OC(C)=O)[C@@H]1C ; wanted: its MIC
0.008
